# assay-explanation: Stability in human HeLa cell homogenate assessed as half life by LC-MS/MS analysis
# Format: ADME, cell-based
Where a SMILES comes first, the peptide text is derived from it. Bridges are numbered along the chain shown (N, C = ends). [ ]: non-standard residue; d: D form. Ala(4-thiazolyl) = N[C@@H](Cc1cscn1)C(=O)O; Bip = N[C@@H](Cc1ccc(-c2ccccc2)cc1)C(=O)O; Ala(cPent) = N[C@@H](CC1CCCC1)C(=O)O; hPhe = N[C@@H](CCc1ccccc1)C(=O)O; Cha = N[C@@H](CC1CCCCC1)C(=O)O; Nle = CCCC[C@H](N)C(=O)O; Nva = CCC[C@H](N)C(=O)O
observed-property: half-life (min)
Respond with the bare value in min.

Solved entries:
{"compound": "CC[C@H](C)[C@@H]1NC(=O)[C@H](Cc2ccc(O)cc2)NC(=O)[C@H](CC(C)C)NC(=O)[C@@H]2CCCN2C(=O)[C@@H](NC(=O)[C@H](CCCNC(=N)N)NC(=O)[C@H](CCCNC(=N)N)NC(C)=O)CSSC[C@@H](C(=O)N[C@@H](CCCNC(=N)N)C(=O)N[C@@H](CCCNC(=N)N)C(N)=O)NC(=O)[C@H](C(C)C)NC(=O)[C@@H]2CCCN2C(=O)[C@H](CC(=O)O)NC(=O)[C@H](Cc2ccc(O)cc2)NC(=O)[C@H](Cc2cscn2)NC1=O (Ac-RRCPLYI[Ala(4-thiazolyl)]YDPVCRR-NH2; disulfide 3-13)", "value": 22}
{"compound": "CCC[C@@H]1NC(=O)[C@H](CCc2ccccc2)NC(=O)[C@H](CC(C)C)NC(=O)[C@@H]2CCCN2C(=O)[C@@H](NC(=O)[C@H](CCCNC(=N)N)NC(=O)[C@H](CCCNC(=N)N)NC(C)=O)CSSC[C@@H](C(=O)N[C@@H](CCCNC(=N)N)C(=O)N[C@@H](CCCNC(=N)N)C(N)=O)NC(=O)[C@H](C(C)C)NC(=O)[C@@H]2CCCN2C(=O)[C@H](CC(=O)O)NC(=O)[C@H](Cc2ccc(O)cc2)NC(=O)[C@H](CO)NC1=O (Ac-RRCPL[hPhe][Nva]SYDPVCRR-NH2; disulfide 3-13)", "value": 15}
{"compound": "CCC[C@@H]1NC(=O)[C@H](Cc2ccc(-c3ccccc3)cc2)NC(=O)[C@H](CC(C)C)NC(=O)[C@@H]2CCCN2C(=O)[C@@H](NC(=O)[C@H](CCCNC(=N)N)NC(=O)[C@H](CCCNC(=N)N)NC(C)=O)CSSC[C@@H](C(=O)N[C@@H](CCCNC(=N)N)C(=O)N[C@@H](CCCNC(=N)N)C(N)=O)NC(=O)[C@H](C(C)C)NC(=O)[C@@H]2CCCN2C(=O)[C@H](CC(=O)O)NC(=O)[C@H](Cc2ccc(O)cc2)NC(=O)[C@H](CO)NC1=O (Ac-RRCPL[Bip][Nva]SYDPVCRR-NH2; disulfide 3-13)", "value": 26}
{"compound": "CC[C@H](C)[C@@H]1NC(=O)[C@H](CCc2ccccc2)NC(=O)[C@H](CC(C)C)NC(=O)[C@@H]2CCCN2C(=O)[C@@H](NC(=O)[C@H](CCCNC(=N)N)NC(=O)[C@H](CCCNC(=N)N)NC(C)=O)CSSC[C@@H](C(=O)N[C@@H](CCCNC(=N)N)C(=O)N[C@@H](CCCNC(=N)N)C(N)=O)NC(=O)[C@H](C(C)C)NC(=O)[C@@H]2CCCN2C(=O)[C@H](CC(=O)O)NC(=O)[C@H](Cc2ccc(O)cc2)NC(=O)[C@H](CO)NC1=O (Ac-RRCPL[hPhe]ISYDPVCRR-NH2; disulfide 3-13)", "value": 37}
{"compound": "CC[C@H](C)[C@@H]1NC(=O)[C@H](Cc2ccc(O)cc2)NC(=O)[C@H](CC(C)C)NC(=O)[C@@H]2CCCN2C(=O)[C@@H](NC(=O)[C@H](CCCNC(=N)N)NC(=O)[C@H](CCCNC(=N)N)NC(C)=O)CSSC[C@@H](C(=O)N[C@@H](CCCNC(=N)N)C(=O)N[C@@H](CCCNC(=N)N)C(N)=O)NC(=O)[C@H](C(C)C)NC(=O)[C@@H]2CCCN2C(=O)[C@H](CC(=O)O)NC(=O)[C@H](Cc2ccc(O)cc2)NC(=O)[C@H](CO)NC1=O (Ac-RRCPLYISYDPVCRR-NH2; disulfide 3-13)", "value": 23}
{"compound": "CCCC[C@@H]1NC(=O)[C@H]([C@@H](C)CC)NC(=O)[C@H](Cc2ccc(O)cc2)NC(=O)[C@H](CC(C)C)NC(=O)[C@@H]2CCCN2C(=O)[C@@H](NC(=O)[C@H](CCCNC(=N)N)NC(=O)[C@H](CCCNC(=N)N)NC(C)=O)CSSC[C@@H](C(=O)N[C@@H](CCCNC(=N)N)C(=O)N[C@@H](CCCNC(=N)N)C(N)=O)NC(=O)[C@H](C(C)C)NC(=O)[C@@H]2CCCN2C(=O)[C@H](CC(=O)O)NC(=O)[C@H](CC2CCCCC2)NC1=O (Ac-RRCPLYI[Nle][Cha]DPVCRR-NH2; disulfide 3-13)", "value": 26}

Identify the reported half-life for the following entry. CC(=O)N[C@@H](CCCNC(=N)N)C(=O)N[C@@H](CCCNC(=N)N)C(=O)N[C@H]1CSSC[C@@H](C(=O)N[C@@H](CCCNC(=N)N)C(=O)N[C@@H](CCCNC(=N)N)C(N)=O)NC(=O)[C@H](C(C)C)NC(=O)[C@@H]2CCCN2C(=O)[C@H](CC(=O)O)NC(=O)[C@H](Cc2ccc(O)cc2)NC(=O)[C@H](CO)NC(=O)[C@H](CC2CCCC2)NC(=O)[C@H](CC2CCCCC2)NC(=O)[C@H](CC(C)C)NC(=O)[C@@H]2CCCN2C1=O (Ac-RRCPL[Cha][Ala(cPent)]SYDPVCRR-NH2; disulfide 3-13) 21

---

Reported IC50 values are given for each entry in this list.
# target-system: GTPase KRas (Homo sapiens, UniProt P01116, G12D)
# Sequence (P01116 whole entry G12D): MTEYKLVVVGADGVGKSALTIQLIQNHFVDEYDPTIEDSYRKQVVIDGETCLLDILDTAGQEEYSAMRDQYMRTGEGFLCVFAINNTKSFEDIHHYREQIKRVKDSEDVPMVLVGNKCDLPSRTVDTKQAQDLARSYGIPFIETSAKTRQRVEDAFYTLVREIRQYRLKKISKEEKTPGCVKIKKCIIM
# assay-explanation: Inhibition of recombinant biotinylated KRAS G12D mutant (unknown origin) assessed as inhibition of SOS-catalyzed nucleotide exchange preincubated for 60 mins followed by addition of human SOS protein and unlabeled GTP and measured after 60 mins by TR-FRET analysis
Where a SMILES comes first, the peptide text is derived from it. Bridges are numbered along the chain shown (N, C = ends). [ ]: non-standard residue; d: D form. Cha = N[C@@H](CC1CCCCC1)C(=O)O; Nle = CCCC[C@H](N)C(=O)O; Nva = CCC[C@H](N)C(=O)O

Solved entries:
{"compound": "CCC[C@@H]1NC(=O)[C@H](CC2CCCCC2)NC(=O)[C@H](CC(C)C)NC(=O)[C@@H]2CCCN2C(=O)[C@@H](NC(=O)[C@H](CCCNC(=N)N)NC(=O)[C@H](CCCNC(=N)N)NC(C)=O)CSSC[C@@H](C(=O)N[C@@H](CCCNC(=N)N)C(=O)N[C@@H](CCCNC(=N)N)C(N)=O)NC(=O)[C@H](C(C)C)NC(=O)[C@@H]2CCCN2C(=O)[C@H](CC(=O)O)NC(=O)[C@H](Cc2ccc(O)cc2)NC(=O)[C@H](CO)NC1=O (Ac-RRCPL[Cha][Nva]SYDPVCRR-NH2; disulfide 3-13)", "target-system": "GTPase KRas (Homo sapiens, UniProt P01116, G12D)", "IC50": "> 11.1 µM"}
{"compound": "CCCC[C@@H]1NC(=O)[C@H]([C@@H](C)CC)NC(=O)[C@H](Cc2ccc(O)cc2)NC(=O)[C@H](CC(C)C)NC(=O)[C@@H]2CCCN2C(=O)[C@@H](NC(=O)[C@H](CCCNC(=N)N)NC(=O)[C@H](CCCNC(=N)N)NC(C)=O)CSSC[C@@H](C(=O)N[C@@H](CCCNC(=N)N)C(=O)N[C@@H](CCCNC(=N)N)C(N)=O)NC(=O)[C@H](C(C)C)NC(=O)[C@@H]2CCCN2C(=O)[C@H](CC(=O)O)NC(=O)[C@H](Cc2ccc(O)cc2)NC1=O (Ac-RRCPLYI[Nle]YDPVCRR-NH2; disulfide 3-13)", "target-system": "GTPase KRas (Homo sapiens, UniProt P01116, G12D)", "IC50": "> 11.1 µM"}

Turning now to a further record.
Identify the reported IC50 for the following entry. `CC[C@H](C)[C@@H]1NC(=O)[C@H](Cc2ccc(-c3ccccc3)cc2)NC(=O)[C@H](CC(C)C)NC(=O)[C@@H]2[C@@H](c3ccccc3)CCN2CC(=O)[C@@H](NC(=O)[C@H](CCCNC(=N)N)NC(=O)[C@H](CCCNC(=N)N)NC(C)=O)CSSC[C@@H](C(=O)N[C@@H](CCCNC(=N)N)C(=O)N[C@@H](CCCNC(=N)N)C(N)=O)NC(=O)[C@H](C(C)C)NC(=O)[C@@H]2CCCN2C(=O)[C@H](CC(=O)O)NC(=O)[C@H](Cc2ccc(O)cc2)NC(=O)[C@H](CO)NC1=O` < 0.001 µM
